These entries and their values trace back to ChEMBL document CHEMBL4017488.

Biological target: Cytochrome P450 2C8 (Homo sapiens, UniProt P10632)
Sequence (P10632 whole entry): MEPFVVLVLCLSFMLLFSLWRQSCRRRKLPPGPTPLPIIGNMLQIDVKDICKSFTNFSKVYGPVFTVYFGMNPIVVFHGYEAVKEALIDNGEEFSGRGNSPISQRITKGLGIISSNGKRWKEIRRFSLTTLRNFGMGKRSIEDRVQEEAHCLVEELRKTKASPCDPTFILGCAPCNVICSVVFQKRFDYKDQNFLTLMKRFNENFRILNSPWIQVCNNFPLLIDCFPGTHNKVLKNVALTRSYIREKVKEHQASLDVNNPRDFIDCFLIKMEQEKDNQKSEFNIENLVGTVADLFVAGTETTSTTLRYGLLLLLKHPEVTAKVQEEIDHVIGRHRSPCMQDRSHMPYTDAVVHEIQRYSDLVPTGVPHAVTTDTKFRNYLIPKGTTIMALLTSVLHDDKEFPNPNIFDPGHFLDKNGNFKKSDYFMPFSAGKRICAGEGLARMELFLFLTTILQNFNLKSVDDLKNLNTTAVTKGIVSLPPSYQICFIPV
Assay: Inhibition of CYP2C8 in human liver microsomes preincubated for 30 mins followed by substrate addition measured after 2 mins
Type: ADME
reported_endpoint: Ki

smiles_str=O=C(O)[C@H]1O[C@@H](OC(=O)[C@H](c2ccccc2Cl)N2CCc3sccc3C2)[C@H](O)[C@@H](O)[C@@H]1O result="9.9 µM"

###

Target: CYP2C8 (Homo sapiens, UniProt P10632)
Experiment: Inhibition of CYP2C8 in human liver microsomes preincubated for 30 mins followed by substrate addition measured after 2 mins
Type: ADME
Settings: human, liver microsomes
reported_endpoint: kinact at 2 min (s⁻¹)

smiles_str=O=C(O)[C@H]1O[C@@H](OC(=O)[C@H](c2ccccc2Cl)N2CCc3sccc3C2)[C@H](O)[C@@H](O)[C@@H]1O reading_unit=s⁻¹ numeric_value=0.000783

###

Target: Cytochrome P450 2C8 (Homo sapiens)
Assay: Inhibition of CYP2C8 in human liver microsomes using paclitaxel as substrate preincubated for 2 to 40 mins followed by NADPH-generating system addition measured after 2 mins
Type: ADME
reported_endpoint: Ki (µM)

smiles_str=Cc1ccc(C)c(OCCCC(C)(C)C(=O)O[C@@H]2O[C@H](C(=O)O)[C@@H](O)[C@H](O)[C@H]2O)c1 reading_unit=µM numeric_value=52

###

Target: CYP2C8 (Homo sapiens, UniProt P10632)
Sequence (P10632 whole entry): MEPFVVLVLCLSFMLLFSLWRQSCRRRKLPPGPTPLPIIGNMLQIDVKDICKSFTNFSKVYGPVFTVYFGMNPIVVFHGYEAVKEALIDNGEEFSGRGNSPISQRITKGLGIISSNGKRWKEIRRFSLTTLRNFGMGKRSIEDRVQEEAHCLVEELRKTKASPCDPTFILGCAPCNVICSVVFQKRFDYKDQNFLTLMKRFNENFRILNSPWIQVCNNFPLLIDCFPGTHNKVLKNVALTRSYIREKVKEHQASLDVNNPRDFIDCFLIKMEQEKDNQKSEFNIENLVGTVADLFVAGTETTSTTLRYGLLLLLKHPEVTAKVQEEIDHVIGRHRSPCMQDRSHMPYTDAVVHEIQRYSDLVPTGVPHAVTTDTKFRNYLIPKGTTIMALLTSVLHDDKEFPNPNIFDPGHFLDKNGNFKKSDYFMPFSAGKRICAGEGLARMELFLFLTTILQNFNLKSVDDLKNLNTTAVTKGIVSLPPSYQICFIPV
Assay: Time dependent inhibition of CYP2C8 in human liver microsomes after 5 mins by LC-MS/MS analysis
Type: ADME
Settings: human, liver microsomes
reported_endpoint: kinact at 5 min (s⁻¹)

smiles_str=Cn1c(C2(NC(=O)c3ccc4c(C5CCCC5)c(-c5ncc(Br)cn5)n(C)c4c3)CCC2)nc2ccc(/C=C/C(=O)O[C@@H]3O[C@H](C(=O)O)[C@@H](O)[C@H](O)[C@H]3O)cc21 reported_endpoint="kinact at 5 min" numeric_value=0.000868
